ASSAY_SUMMARY: physchem
CONDITION_DETAILS: pH 7.4
EXPERIMENTAL_READOUT: logD at 90 min

COMPOUND: Oc1ccc2c(c1)C(Cc1c[nH]cn1)CC2 (stereo not shown) [Compound A, 3-(1H-imidazol-4-ylmethyl)-indan-5-ol]
EXPERIMENTAL_READOUT: logD at 90 min
RESULT_VALUE: 1.91
